Data origin, for the record: ChEMBL document CHEMBL1147601

Test: In vivo biodistribution ratio in tumor to that of blood (T/B ratio) in MCF-7 transfected with IL-1alpha implanted athymic mice
Format: ADME, organism-based
Conditions: mouse
parameter: Kp

### Prompt I am curious: what Kp value has been reported for [11CH3]Oc1ccc(NS(=O)(=O)c2c(F)c(F)c(F)c(F)c2F)cc1F ?
### Response 0.94
